- target: UniProtKB P21731
- protocol.details: TXA2 receptor antagonism, measured by the displacement of [3H]SQ-29548 from the PGH-2/TXA-2 receptor on human platelets
- Format: functional
measured.endpoint: IC50 (µM)
Just the number please, in µM, no unit attached.

IC50 for O=C(O)CCCCO/N=C(\c1ccccc1)c1cccnn1 ?
104

---

- Species: Homo sapiens
- protocol.details: Inhibition of collagen-induced platelet aggregation in human platelet rich plasma
- Assay type: functional
Threshold check on EC50: strictly below 200 µM is yes (1); on or above 200 µM is no (0).

chemical_smiles=O=C(O)CCCCO/N=C(\c1cccc(C(F)(F)F)c1)c1ccncn1 label_class="yes (1)"
chemical_smiles=O=C(O)CCCCO/N=C(\c1cccc(C(F)(F)F)c1)c1cccnn1 label_class="yes (1)"
chemical_smiles=O=C(O)CCCCCO/N=C(/c1ccccc1)c1cnccn1 label_class="no (0)"
chemical_smiles=O=C(O)CCCCCO/N=C(/c1ccccc1)c1ccncn1 label_class="no (0)"

Dear colleague, could you confirm whether EC50 of O=C(O)CCCCO/N=C(/c1ccccc1)c1cnccn1 falls below 200 µM? Thanks.
yes (1)

Another compound to look at: O=C(O)CCCCCO/N=C(\c1cccc(C(F)(F)F)c1)c1ccncn1
yes (1)

---

- target: Thromboxane-A synthase (Homo sapiens, UniProt P24557)
- Sequence (P24557 whole entry): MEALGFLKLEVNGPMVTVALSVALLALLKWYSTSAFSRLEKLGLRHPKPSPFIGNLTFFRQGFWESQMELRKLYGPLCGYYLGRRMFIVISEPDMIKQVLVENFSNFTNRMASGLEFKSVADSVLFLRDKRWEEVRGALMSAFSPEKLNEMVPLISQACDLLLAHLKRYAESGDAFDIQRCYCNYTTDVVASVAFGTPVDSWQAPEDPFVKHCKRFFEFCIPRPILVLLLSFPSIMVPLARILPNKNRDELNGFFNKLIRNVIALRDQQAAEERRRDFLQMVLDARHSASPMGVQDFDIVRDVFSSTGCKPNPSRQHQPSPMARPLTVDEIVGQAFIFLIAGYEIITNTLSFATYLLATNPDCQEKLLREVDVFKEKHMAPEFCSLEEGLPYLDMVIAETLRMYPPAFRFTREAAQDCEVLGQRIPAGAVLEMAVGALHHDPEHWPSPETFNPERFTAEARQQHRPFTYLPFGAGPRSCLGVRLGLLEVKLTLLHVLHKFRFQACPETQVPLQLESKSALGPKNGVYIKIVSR
- protocol.details: TXA2 synthetase inhibition measured by the inhibition of TXB2 formation by human gel-filtered platelets incubated with [14C]arachidonic acid
measured.endpoint: IC50

molecule=O=C(O)CCCCCO/N=C(/c1ccccc1)c1ccnnc1 experimental_result="> 10000 nM"
molecule=O=C(O)CCCCO/N=C(/c1ccnnc1)c1cccc(C(F)(F)F)c1 experimental_result="16 nM"

IC50 for O=C(O)CCCCO/N=C(/c1ccccc1)c1ccnnc1 ?
8800 nM

Another molecule to look at: O=C(O)CCCCO/N=C(/c1ccccc1)c1ccncn1
> 100000 nM

Another molecule to look at: O=C(O)CCCCO/N=C(/c1cccc(C(F)(F)F)c1)c1ccncn1
> 100000 nM

Another molecule to look at: O=C(O)CCCCO/N=C(/c1cccnc1)c1cccc(C(F)(F)F)c1 [RIDOGREL]
7 nM

Another molecule to look at: O=C(O)CCCCCO/N=C(\c1ccnnc1)c1cccc(C(F)(F)F)c1
> 10000 nM

Another molecule to look at: O=C(O)CCCCO/N=C(/c1ccccc1)c1cncnc1
573 nM

Another molecule to look at: O=C(O)CCCCO/N=C(\c1cccc(C(F)(F)F)c1)c1ccncn1
> 10000 nM

Another molecule to look at: O=C(O)CCCCO/N=C(/c1ccccc1)c1cnccn1
620 nM

---

- target: Thromboxane A2 receptor (Homo sapiens)
- protocol.details: TXA2 receptor antagonism, measured by the displacement of [3H]SQ29,548 from the PGH-2/TXA-2 receptor on human platelets
- Assay type: functional
pIC50: −log10 of the molar value.
Entry flag: Criterion met if pIC50 reaches 5; Criterion not met if it does not.

Would you please look over these solved cases?
chemical_smiles=O=C(O)CCCCCO/N=C(\c1cccc(C(F)(F)F)c1)c1ccncn1 label_class="Criterion met"
chemical_smiles=O=C(O)CCCCCO/N=C(/c1ccnnc1)c1cccc(C(F)(F)F)c1 label_class="Criterion not met"
chemical_smiles=O=C(O)CCCCO/N=C(/c1cccc(C(F)(F)F)c1)c1ccncn1 label_class="Criterion met"
chemical_smiles=O=C(O)CCCCCO/N=C(\c1ccccc1)c1ccnnc1 label_class="Criterion met"
chemical_smiles=O=C(O)CCCCO/N=C(/c1ccnnc1)c1cccc(C(F)(F)F)c1 label_class="Criterion met"

Now consider a different molecule.
Given the entry O=C(O)CCCCO/N=C(\c1ccccc1)c1cnccn1 , answer whether its pIC50 meets or surpasses 5.
Criterion not met

---

- Species on record: Homo sapiens
- protocol.details: Inhibition of collagen-induced platelet aggregation in human platelet rich plasma
- Type: functional
Each entry below lists one item and its recorded pEC50 value.
// scale note: pEC50 = -log10(conc_M); give the bare number

Known pEC50 results, listed for orientation:
chemical_smiles=O=C(O)CCCCCO/N=C(\c1ccccc1)c1ccncn1 measured_endpoint=pEC50 experimental_result=3.95
chemical_smiles=O=C(O)CCCCO/N=C(\c1ccccc1)c1ccncn1 measured_endpoint=pEC50 experimental_result=3.56
chemical_smiles=O=C(O)CCCCO/N=C(\c1cccc(C(F)(F)F)c1)c1ncccn1 measured_endpoint=pEC50 experimental_result=3.57
chemical_smiles=O=C(O)CCCCO/N=C(\c1cncnc1)c1cccc(C(F)(F)F)c1 measured_endpoint=pEC50 experimental_result=4.92
chemical_smiles=O=C(O)CCCCCO/N=C(/c1cncnc1)c1cccc(C(F)(F)F)c1 measured_endpoint=pEC50 experimental_result=3.70

Turning now to a further molecule:
pEC50 for O=C(O)CCCCO/N=C(/c1ccnnc1)c1cccc(C(F)(F)F)c1 ?
4.28

---

Each entry below lists one item and its recorded pIC50 value.
- target: Thromboxane A2 receptor (Homo sapiens)
- protocol.details: TXA2 receptor antagonism, measured by the displacement of [3H]SQ29,548 from the PGH-2/TXA-2 receptor on human platelets
- Assay type: functional
// scale note: pIC50 = -log10(conc_M); give the bare number

chemical_smiles=O=C(O)CCCCCO/N=C(/c1ccccc1)c1ccnnc1 target="Thromboxane A2 receptor (Homo sapiens)" experimental_result=5.11

pIC50 for O=C(O)CCCCO/N=C(/c1ccccc1)c1cnccn1 ?
4.62

---

pIC50: −log10 of the molar value.
# collection of pIC50 values tested on Thromboxane-A synthase (Homo sapiens)

Known pIC50 results, listed for orientation:
chemical_smiles=O=C(O)CCCCCO/N=C(\c1ccccc1)c1ccncn1 experimental_result="< 5.00"
chemical_smiles=O=C(O)CCCCO/N=C(\c1cncnc1)c1cccc(C(F)(F)F)c1 experimental_result=5.21
chemical_smiles=O=C(O)CCCCCO/N=C(/c1ccnnc1)c1cccc(C(F)(F)F)c1 experimental_result=6.16
chemical_smiles=O=C(O)CCCCCO/N=C(\c1cccc(C(F)(F)F)c1)c1ccncn1 experimental_result="< 5.00"
chemical_smiles=O=C(O)CCCCO/N=C(/c1cccc(C(F)(F)F)c1)c1ncccn1 experimental_result="< 5.00"

Turning now to a further molecule:
Hello, I am looking for reported pIC50 with Thromboxane-A synthase (Homo sapiens) for O=C(O)CCCCO/N=C(\c1ccccc1)c1ccncn1 . Could you help?
< 4.00

---

- target: Thromboxane A2 receptor (Homo sapiens, UniProt P21731)
- Sequence (P21731 whole entry): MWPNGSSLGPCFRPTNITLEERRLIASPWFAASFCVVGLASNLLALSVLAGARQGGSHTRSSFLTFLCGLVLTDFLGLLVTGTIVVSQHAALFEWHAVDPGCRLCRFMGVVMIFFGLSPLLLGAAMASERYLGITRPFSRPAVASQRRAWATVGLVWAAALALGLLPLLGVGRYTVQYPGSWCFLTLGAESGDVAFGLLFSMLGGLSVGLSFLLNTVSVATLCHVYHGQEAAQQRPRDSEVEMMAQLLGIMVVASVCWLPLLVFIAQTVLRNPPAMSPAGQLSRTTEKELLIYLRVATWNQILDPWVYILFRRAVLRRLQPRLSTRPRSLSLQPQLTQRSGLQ
- protocol.details: TXA2 receptor antagonism, measured by the displacement of [3H]SQ29,548 from the PGH-2/TXA-2 receptor on human platelets
- Format: functional
pIC50: −log10 of the molar value.
Entry flag: fulfilled if pIC50 reaches 5; not fulfilled if it does not.

Would you please look over these solved cases?
chemical_smiles=O=C(O)CCCCCO/N=C(/c1ccccc1)c1ccncn1 target="Thromboxane A2 receptor (Homo sapiens, UniProt P21731)" label_class="not fulfilled"
chemical_smiles=O=C(O)CCCCO/N=C(\c1ccccc1)c1ccnnc1 target="Thromboxane A2 receptor (Homo sapiens, UniProt P21731)" label_class="not fulfilled"
chemical_smiles=O=C(O)CCCCO/N=C(/c1ccccc1)c1ccncn1 target="Thromboxane A2 receptor (Homo sapiens, UniProt P21731)" label_class="not fulfilled"
chemical_smiles=O=C(O)CCCCO/N=C(\c1cccc(C(F)(F)F)c1)c1ncccn1 target="Thromboxane A2 receptor (Homo sapiens, UniProt P21731)" label_class="not fulfilled"

Given the entry O=C(O)CCCCCO/N=C(\c1ccccc1)c1ccncn1 , answer whether its pIC50 meets or surpasses 5.
fulfilled

---

- Species: Homo sapiens
- protocol.details: Inhibition of collagen-induced platelet aggregation in human platelet rich plasma
- Assay type: functional
pEC50: −log10 of the molar value.
Entry flag: true (1) if pEC50 reaches 4; false (0) if it does not.

Given the entry O=C(O)CCCCCO/N=C(\c1ccccc1)c1cccnn1 , answer whether its pEC50 meets or surpasses 4.
false (0)

Another compound to look at: O=C(O)CCCCO/N=C(/c1cccc(C(F)(F)F)c1)c1cnccn1
true (1)

Another compound to look at: O=C(O)CCCCCO/N=C(/c1ccnnc1)c1cccc(C(F)(F)F)c1
false (0)

Another compound to look at: O=C(O)CCCCO/N=C(/c1cccc(C(F)(F)F)c1)c1ncccn1
false (0)
